// data source = paper PMC3815685

Target: hCSAD (Homo sapiens)
Sequence (Q9Y600 1-493): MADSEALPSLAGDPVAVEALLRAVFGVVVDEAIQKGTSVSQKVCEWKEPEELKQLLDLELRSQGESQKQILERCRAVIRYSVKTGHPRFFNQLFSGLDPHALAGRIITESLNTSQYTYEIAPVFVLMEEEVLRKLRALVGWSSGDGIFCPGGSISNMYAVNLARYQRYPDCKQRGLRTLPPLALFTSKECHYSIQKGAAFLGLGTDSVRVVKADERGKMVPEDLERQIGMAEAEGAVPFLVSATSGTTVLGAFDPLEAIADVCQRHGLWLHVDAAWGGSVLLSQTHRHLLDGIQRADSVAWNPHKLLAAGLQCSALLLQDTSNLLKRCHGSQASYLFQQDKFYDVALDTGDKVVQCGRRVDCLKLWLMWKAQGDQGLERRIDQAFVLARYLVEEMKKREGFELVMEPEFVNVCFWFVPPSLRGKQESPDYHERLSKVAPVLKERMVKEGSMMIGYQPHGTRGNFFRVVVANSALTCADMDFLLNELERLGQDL
readout_label: IC50 (mM)
One number for each entry, in mM.

# query: IC50 of entry N[C@@H](CCC(=O)O)C(=O)O [L-Glu, L-glutamic acid]
1.1
